# Tested on: 885512-296-R-J2-PDC complex spheroid viability
# procedure_text: Anticancer human tumor 885512-296-R-J2-PDC patient-derived breast carcinoma cell line growth inhibition
# experimental_setup: second compound 10 µM; first compound 0.003 µM; stronger effect = lower value
Reported viability, T/C values follow for various molecules
Reply with just the number (in %).

>  <molecule>
Nc1ccn(C2OC(CO)C(O)C2(F)F)c(=O)n1 (stereo unspecified) + NC1CCC(NC2CC2c2ccccc2)CC1

>  <experimental_target>
885512-296-R-J2-PDC complex spheroid viability

>  <output_unit>
%

>  <viability, T/C>
4.02

$$$$
>  <molecule>
Nc1ncn(C2CC(O)C(CO)S2)c(=O)n1 (stereo unspecified) + NC1CC1c1ccc(-c2cccc(O)c2)cc1

>  <experimental_target>
885512-296-R-J2-PDC complex spheroid viability

>  <output_unit>
%

>  <viability, T/C>
39.8

$$$$
>  <molecule>
CCc1c2c(nc3ccc(O)cc13)-c1cc3c(c(=O)n1C2)COC(=O)[C@]3(O)CC + NC1CCC(NC2CC2c2ccccc2)CC1

>  <experimental_target>
885512-296-R-J2-PDC complex spheroid viability

>  <output_unit>
%

>  <viability, T/C>
1.92

$$$$
>  <molecule>
Nc1ccn(C2OC(CO)C(O)C2(F)F)c(=O)n1 (stereo unspecified) + NC1CC1c1ccc(-c2cccc(O)c2)cc1

>  <experimental_target>
885512-296-R-J2-PDC complex spheroid viability

>  <output_unit>
%

>  <viability, T/C>
2.15

$$$$
>  <molecule>
CCc1c2c(nc3ccc(O)cc13)-c1cc3c(c(=O)n1C2)COC(=O)[C@]3(O)CC + NC1CC1c1ccc(-c2cccc(O)c2)cc1

>  <experimental_target>
885512-296-R-J2-PDC complex spheroid viability

>  <output_unit>
%

>  <viability, T/C>
2.17

$$$$

Now consider the entry below.
Nc1ncn(C2CC(O)C(CO)S2)c(=O)n1 (stereo unspecified) + NC1CCC(NC2CC2c2ccccc2)CC1 tested on 885512-296-R-J2-PDC complex spheroid viability gave viability, T/C: 47.5

###

# System: 885512-296-R-J2-PDC complex spheroid viability
# procedure_text: Anticancer human tumor 885512-296-R-J2-PDC cell line growth inhibition;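 note: spheroids exposed to agents for 7 days before viability read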
# experimental_setup: curve of first compound; second compound 1 µM
Reported IC50 values follow for various compounds
Reply with just the number (in nM).

The examples below pair each entry with its known result.
>  <compound>
CC1(C)CCC(CN2CCN(c3ccc(C(=O)NS(=O)(=O)c4ccc(NCC5CCOCC5)c([N+](=O)[O-])c4)c(Oc4cnc5[nH]ccc5c4)c3)CC2)=C(c2ccc(Cl)cc2)C1 + NC1CC1c1ccc(-c2cccc(O)c2)cc1

>  <output_unit>
nM

>  <IC50>
1850

$$$$
>  <compound>
Nc1ncn(C2CC(O)C(CO)S2)c(=O)n1 (configuration not stated) + NC1CC1c1ccc(-c2cccc(O)c2)cc1

>  <output_unit>
nM

>  <IC50>
4.39

$$$$

Now consider the entry below.
In plain terms, Nc1ncn(C2CC(O)C(CO)S2)c(=O)n1 (configuration not stated) + NC1CCC(NC2CC2c2ccccc2)CC1 has a documented IC50 of 4.84

###

# Test system: 885512-296-R-J2-PDC complex spheroid viability
# procedure_text: Anticancer human tumor 885512-296-R-J2-PDC cell line growth inhibition;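 note: spheroids exposed to agents for 7 days before viability read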
# experimental_setup: second compound 1 µM; first compound 0.01 µM; stronger effect = lower value
experimental_readout: viability, T/C (%)
Reply with just the number (in %).

The examples below pair each entry with its known result.
>  <compound>
Cn1ncnc1C1c2n[nH]c(=O)c3cc(F)cc(c23)NC1c1ccc(F)cc1 (centres undefined) + NC1CC1c1ccc(-c2cccc(O)c2)cc1

>  <experimental_target>
885512-296-R-J2-PDC complex spheroid viability

>  <viability, T/C (%)>
86.3

$$$$
>  <compound>
COc1cc(Nc2ncc3c(n2)-c2ccc(Cl)cc2C(c2c(F)cccc2OC)=NC3)ccc1C(=O)O + NC1CC1c1ccc(-c2cccc(O)c2)cc1

>  <experimental_target>
885512-296-R-J2-PDC complex spheroid viability

>  <viability, T/C (%)>
35.8

$$$$
>  <compound>
CC(C)CC(NC(=O)CNC(=O)c1cc(Cl)ccc1Cl)B1OC(=O)CC(CC(=O)O)(C(=O)O)O1 (centres undefined) + NC1CC1c1ccc(-c2cccc(O)c2)cc1

>  <experimental_target>
885512-296-R-J2-PDC complex spheroid viability

>  <viability, T/C (%)>
9.38

$$$$
>  <compound>
O=C(C=Cn1cnc(-c2cc(C(F)(F)F)cc(C(F)(F)F)c2)n1)NNc1cnccn1 + NC1CCC(NC2CC2c2ccccc2)CC1

>  <experimental_target>
885512-296-R-J2-PDC complex spheroid viability

>  <viability, T/C (%)>
6.6

$$$$
>  <compound>
CC[C@@]1(O)C(=O)OCc2c1cc1n(c2=O)Cc2cc3c(CN(C)C)c(O)ccc3nc2-1 + NC1CC1c1ccc(-c2cccc(O)c2)cc1

>  <experimental_target>
885512-296-R-J2-PDC complex spheroid viability

>  <viability, T/C (%)>
3.22

$$$$
>  <compound>
Nc1ncn(C2CC(O)C(CO)O2)c(=O)n1 (centres undefined) + NC1CC1c1ccc(-c2cccc(O)c2)cc1

>  <experimental_target>
885512-296-R-J2-PDC complex spheroid viability

>  <viability, T/C (%)>
99.4

$$$$
>  <compound>
CC(C)CC(NC(=O)C(Cc1ccccc1)NC(=O)c1cnccn1)B(O)O (centres undefined) + NC1CCC(NC2CC2c2ccccc2)CC1

>  <experimental_target>
885512-296-R-J2-PDC complex spheroid viability

>  <viability, T/C (%)>
0.35

$$$$
>  <compound>
CC1COCCN1c1cc(-c2ccnn2C)c2ccnc(-c3ccn[nH]3)c2n1 (centres undefined) + NC1CCC(NC2CC2c2ccccc2)CC1

>  <experimental_target>
885512-296-R-J2-PDC complex spheroid viability

>  <viability, T/C (%)>
10.6

$$$$

In plain terms, CC(C)CC(NC(=O)C(Cc1ccccc1)NC(=O)c1cnccn1)B(O)O (centres undefined) + NC1CC1c1ccc(-c2cccc(O)c2)cc1 has a documented viability, T/C of 0.01

###

# Tested on: 885512-296-R-J2-PDC complex spheroid viability
# procedure_text: Anticancer human tumor 885512-296-R-J2-PDC cell line growth inhibition; active = viability on the fitted dose curve at most 10% of control; inactive = the rest;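 note: spheroids exposed to agents for 7 days before viability read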
# experimental_setup: second compound 10 µM; first compound 0.001 µM
Field 'call' accepts active, inactive

>  <compound>
CC[C@@]1(O)C(=O)OCc2c1cc1n(c2=O)Cc2cc3c(CN(C)C)c(O)ccc3nc2-1 + NC1CCC(NC2CC2c2ccccc2)CC1

>  <experimental_target>
885512-296-R-J2-PDC complex spheroid viability

>  <assigned_label>
inactive

$$$$
>  <compound>
CC(C)CC(NC(=O)C(Cc1ccccc1)NC(=O)c1cnccn1)B(O)O (stereo not drawn) + NC1CCC(NC2CC2c2ccccc2)CC1

>  <experimental_target>
885512-296-R-J2-PDC complex spheroid viability

>  <assigned_label>
inactive

$$$$
>  <compound>
CC[C@@]1(O)C(=O)OCc2c1cc1n(c2=O)Cc2cc3c(CN(C)C)c(O)ccc3nc2-1 + NC1CC1c1ccc(-c2cccc(O)c2)cc1

>  <experimental_target>
885512-296-R-J2-PDC complex spheroid viability

>  <assigned_label>
inactive

$$$$
>  <compound>
Cn1ncnc1C1c2n[nH]c(=O)c3cc(F)cc(c23)NC1c1ccc(F)cc1 (stereo not drawn) + NC1CC1c1ccc(-c2cccc(O)c2)cc1

>  <experimental_target>
885512-296-R-J2-PDC complex spheroid viability

>  <assigned_label>
inactive

$$$$
>  <compound>
Cn1ncnc1C1c2n[nH]c(=O)c3cc(F)cc(c23)NC1c1ccc(F)cc1 (stereo not drawn) + NC1CCC(NC2CC2c2ccccc2)CC1

>  <experimental_target>
885512-296-R-J2-PDC complex spheroid viability

>  <assigned_label>
inactive

$$$$
>  <compound>
CC(C)CC(NC(=O)CNC(=O)c1cc(Cl)ccc1Cl)B1OC(=O)CC(CC(=O)O)(C(=O)O)O1 (stereo not drawn) + NC1CC1c1ccc(-c2cccc(O)c2)cc1

>  <experimental_target>
885512-296-R-J2-PDC complex spheroid viability

>  <assigned_label>
inactive

$$$$
>  <compound>
CC(C)CC(NC(=O)C(Cc1ccccc1)NC(=O)c1cnccn1)B(O)O (stereo not drawn) + NC1CC1c1ccc(-c2cccc(O)c2)cc1

>  <experimental_target>
885512-296-R-J2-PDC complex spheroid viability

>  <assigned_label>
active

$$$$

Moving on to the next compound.
Recorded call for CC(C)CC(NC(=O)CNC(=O)c1cc(Cl)ccc1Cl)B1OC(=O)CC(CC(=O)O)(C(=O)O)O1 (stereo not drawn) + NC1CCC(NC2CC2c2ccccc2)CC1 ? inactive
